# target.entity: Human AMPK α2β2γ1 (Homo sapiens, UniProt O43741+P54619+P54646)
# Construct: The full length cDNAs of human AMPK β2 (NM_005399.3) and human AMPK α2 (NM_006252.3); The full length cDNAs of human AMPK β2 (NM_005399.3); the full length cDNA of human AMPK γ1 (NM_002733.3); 6xHis (N); made in house; host or cells: Escherichia coli BL21 CodonPlus (DE3)-RIL (AMPK); BL21 Star (DE3) (CaMKK2)
# Sequence (P54646 whole entry): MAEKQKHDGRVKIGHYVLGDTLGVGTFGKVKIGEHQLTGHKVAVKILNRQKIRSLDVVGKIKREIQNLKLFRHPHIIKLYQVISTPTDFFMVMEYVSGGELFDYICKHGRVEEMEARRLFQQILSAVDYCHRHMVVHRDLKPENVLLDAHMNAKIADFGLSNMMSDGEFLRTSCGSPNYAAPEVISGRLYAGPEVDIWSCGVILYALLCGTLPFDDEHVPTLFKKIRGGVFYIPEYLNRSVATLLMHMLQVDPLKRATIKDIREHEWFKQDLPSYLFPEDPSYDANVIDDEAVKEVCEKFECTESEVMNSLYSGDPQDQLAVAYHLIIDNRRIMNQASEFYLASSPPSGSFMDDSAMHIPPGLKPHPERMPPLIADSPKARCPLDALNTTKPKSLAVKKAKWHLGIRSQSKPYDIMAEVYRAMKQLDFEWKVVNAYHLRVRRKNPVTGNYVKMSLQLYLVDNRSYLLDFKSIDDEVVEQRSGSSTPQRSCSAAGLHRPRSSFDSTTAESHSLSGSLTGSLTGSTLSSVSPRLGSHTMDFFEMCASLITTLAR
# Sequence (O43741 whole entry): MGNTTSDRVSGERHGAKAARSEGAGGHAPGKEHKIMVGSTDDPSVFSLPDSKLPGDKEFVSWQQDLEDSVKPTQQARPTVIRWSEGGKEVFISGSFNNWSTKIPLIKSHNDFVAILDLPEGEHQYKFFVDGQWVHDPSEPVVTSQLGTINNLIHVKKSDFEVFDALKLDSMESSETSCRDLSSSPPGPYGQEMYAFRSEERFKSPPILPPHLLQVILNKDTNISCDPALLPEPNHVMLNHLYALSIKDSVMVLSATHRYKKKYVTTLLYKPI
# Sequence (P54619 whole entry): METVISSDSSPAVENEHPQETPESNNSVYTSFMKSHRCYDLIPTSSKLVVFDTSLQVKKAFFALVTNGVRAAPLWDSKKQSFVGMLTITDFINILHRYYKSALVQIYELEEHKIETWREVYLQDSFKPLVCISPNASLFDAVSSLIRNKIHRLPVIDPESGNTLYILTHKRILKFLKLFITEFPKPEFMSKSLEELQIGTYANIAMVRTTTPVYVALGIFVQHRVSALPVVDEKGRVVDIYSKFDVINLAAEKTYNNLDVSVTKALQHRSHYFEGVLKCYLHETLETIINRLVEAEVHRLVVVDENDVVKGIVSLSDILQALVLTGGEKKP
# test.method.notes: Test Example 2: AMPK activator evaluation, mobility-shift kinase assay after CaMKK2 phosphorylation
# Format: biochemical
# measurement.context: maximum rate of increase in activity within the measurement range, control = 100%
# Text: The full length cDNAs of human AMPK β2 (NM_005399.3) and human AMPK α2 (NM_006252.3) were inserted into the MCS1 and MCS2 of the pETDuet-1 vector to prepare a human AMPK β2 and human AMPK α2 (6× His tag at the 5′ terminus) expressing plasmid. […] To detect phosphorylated fluorescent substrates, the reaction liquid was applied to a measuring device, LabChip EZ Reader II manufactured by Caliper Life Science, Inc., for detecting fluorescence by using differences in mobility due to differences in charge. […]
Here, each record is paired with measured Emax data.
test.readout: Emax (%)

> print(dat)
                                   compound  test.readout  unit.tag  measured.result
1  Cn1cc(-c2cc(F)c(CNc3nc4nc(O[C@@H]5CO[C@H]6[C@@H]5OC[C@H]6O)[nH]c4cc3Cl)c(F)c2)cn1          Emax         %              506
2  COCCOc1cc(F)c2c(c1)CC[C@@H]2Nc1nc2nc(O[C@@H]3CO[C@H]4[C@@H]3OC[C@H]4O)[nH]c2cc1Cl          Emax         %              669
3  CCc1ccc(CNc2nc3nc(O[C@@H]4CO[C@H]5[C@@H]4OC[C@H]5O)[nH]c3cc2Cl)s1          Emax         %              542
4  Cn1cc(-c2cc(F)c3c(c2)CCC3Nc2nc3nc(O[C@@H]4CO[C@H]5[C@@H]4OC[C@H]5O)[nH]c3cc2Cl)cn1 (stereo partly drawn)          Emax         %              535
5  CN1CCC(Oc2cc(F)c(CNc3nc4nc(O[C@@H]5CO[C@H]6[C@@H]5OC[C@H]6O)[nH]c4cc3Cl)c(F)c2)CC1          Emax         %              568
6  CS(=O)(=O)CCCOc1cc(F)c(CNc2nc3nc(O[C@@H]4CO[C@H]5[C@@H]4OC[C@H]5O)[nH]c3cc2Cl)c(F)c1          Emax         %              532

----------
# target.entity: Human AMPK α2β2γ1 (Homo sapiens, UniProt O43741+P54619+P54646)
# Construct: The full length cDNAs of human AMPK β2 (NM_005399.3) and human AMPK α2 (NM_006252.3); The full length cDNAs of human AMPK β2 (NM_005399.3); the full length cDNA of human AMPK γ1 (NM_002733.3); 6xHis (N); made in house; host or cells: Escherichia coli BL21 CodonPlus (DE3)-RIL (AMPK); BL21 Star (DE3) (CaMKK2)
# test.method.notes: Test Example 2: AMPK activator evaluation, mobility-shift kinase assay after CaMKK2 phosphorylation
# Assay type: biochemical
# measurement.context: maximum rate of increase in activity within the measurement range, control = 100%
test.readout: Emax (%)

> print(dat)
                                   molecule                             target.entity  measured.result
1  O=C(c1cc(F)c2c(c1)CCC2Nc1nc2nc(O[C@@H]3CO[C@H]4[C@@H]3OC[C@H]4O)[nH]c2cc1Cl)N1CC[C@H](F)C1 (stereo partly drawn)  Human AMPK α2β2γ1 (Homo sapiens, UniProt O43741+P54619+P54646)              546
2  COCCOc1cc(F)c(CNc2nc3nc(O[C@@H]4CO[C@H]5[C@@H]4OC[C@H]5O)[nH]c3cc2Cl)c(F)c1  Human AMPK α2β2γ1 (Homo sapiens, UniProt O43741+P54619+P54646)              838
3  Cn1cc(-c2cc(F)c(CNc3nc4nc(O[C@@H]5CO[C@H]6[C@@H]5OC[C@H]6O)[nH]c4cc3Cl)c(F)c2)ccc1=O  Human AMPK α2β2γ1 (Homo sapiens, UniProt O43741+P54619+P54646)              637
